assay: self-splicing fitness, log relative to wild type (ln ratio); higher = more splicing; Tetrahymena group I intron in knt gene, E. coli kanamycin selection, DiMSum; sequences stand for … in CUCUCU…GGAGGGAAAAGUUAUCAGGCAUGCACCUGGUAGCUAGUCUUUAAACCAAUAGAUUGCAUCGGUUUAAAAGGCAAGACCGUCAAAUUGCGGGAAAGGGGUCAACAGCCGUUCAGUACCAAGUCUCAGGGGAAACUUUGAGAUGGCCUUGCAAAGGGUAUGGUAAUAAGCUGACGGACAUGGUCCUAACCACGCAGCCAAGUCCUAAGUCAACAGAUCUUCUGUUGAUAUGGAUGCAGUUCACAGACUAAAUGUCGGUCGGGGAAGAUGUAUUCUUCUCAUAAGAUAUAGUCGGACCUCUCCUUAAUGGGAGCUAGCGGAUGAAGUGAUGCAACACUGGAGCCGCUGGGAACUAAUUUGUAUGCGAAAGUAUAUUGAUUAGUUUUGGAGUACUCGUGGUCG; conditions: 30 °C;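 note: selection with 25 µg/mL kanamycin versus none on LB agar overnight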
assay endpoint: self-splicing fitness (ln)
// return just the number, without any unit appended

INSERT INTO measurements (construct_sequence, result_number) VALUES
  ('AAGGAGCAAUAUUACGGAUC', -2.64),
  ('GGGCAGCAAUAUUACGACCU', -1.88),
  ('ACCAAGCAAUAUUACGUCCA', -2.01),
  ('GUUAAGCAAUAUUACGGGUA', -2.01),
  ('AAGUAGCAAUAUUACGGAUA', -2.1),
  ('GUGGAGCAAUAUUACGUCAU', -4.2),
  ('GAUCAGCAAUAUUACGGUGU', -0.951),
  ('CCCUAGCAAUAUUACGCUUU', -4.12),
  ('CGCGAGCAAUAUUACGUAGC', -3.66),
  ('GACCAGCAAUAUUACGAAGA', -1.44);

Query: self-splicing fitness (ln); subject: GAAAAGCAAUAUUACGUGCC -1.69

Query: self-splicing fitness (ln); subject: CGUCAGCAAUAUUACGUGUG -0.543

Query: self-splicing fitness (ln); subject: GGGUAGCAAUAUUACGGCGU -0.56

Query: self-splicing fitness (ln); subject: GCGGAGCAAUAUUACGCGUA -2.77

Query: self-splicing fitness (ln); subject: CUCUAGCAAUAUUACGGCUC -3.83

Query: self-splicing fitness (ln); subject: AGAAAGCAAUAUUACGUGGA -2.47
